Measured values drawn from paper PMC7766159 for this set.

Test system: TK6 cells
Test: Cytostasis analysis (Relative Population Doubling, Guava ViaCount)
Type: cell-based, human
Details: 26 h, tested 6.25-75 µM
OBSERVATION_TYPE: concentrations that caused an RPD value well above 55 ± 5% (OECD threshold)

>>> assay_result("COc1ccc(OC)c(CCN)c1 [2C-H, 2,5-dimethoxyphenethylamine]")
"up to 35 µM"
>>> assay_result("COc1cc(CCN)c(OC)cc1Br [2C-B, 2,5-dimethoxy-4-bromophenethylamine]")
"up to 35 µM"
>>> assay_result("COc1cc(CCN)c(OC)cc1I [2C-I, 2,5-Dimethoxy-4-iodophenethylamine]")
"up to 35 µM"
